The origin of these recorded values is patent US20150307628.

Assay: co-expression in HEK293F, protein A purification, non-reducing SDS-PAGE, band density (ImageJ); mean ± S.E.M.
Known Heterodimer yields, BB Homodimer (CH3B:CH3B) (Fc)2 of a selection of proteins
Field: numeric (%). Do not append units.

Query: Would you kindly share the measured Heterodimer yields, BB Homodimer (CH3B:CH3B) (Fc)2 for dummy-Fc heavy chain constant region with CH3B of mutant EW-RVT (S-S) (Q347R/S354C/D399V/F405T) (protein) TCPPCPAPELLGGPSVFLFPPKPKDTLMISRTPEVTCVVVDVSHEDPEVKFNWYVDGVEVHNAKTKPREEQYNSTYRVVSVLTVLHQDWLNGKEYKCKVSNKALPAPIEKTISKAKGQPREPRVYTLPPCRDELTKNQVSLTCLVKGFYPSDIAVEWESNGQPENNYKTTPPVLVSDGSFTLYSKLTVDKSRWQQGNVFSCSVMHEALHNHYTQKSLSLSPGK ?
Result: 2.2

Query: Would you kindly share the measured Heterodimer yields, BB Homodimer (CH3B:CH3B) (Fc)2 for dummy-Fc heavy chain constant region with CH3B of mutant SW-WVT (E357W/D399V/F405T) (protein) TCPPCPAPELLGGPSVFLFPPKPKDTLMISRTPEVTCVVVDVSHEDPEVKFNWYVDGVEVHNAKTKPREEQYNSTYRVVSVLTVLHQDWLNGKEYKCKVSNKALPAPIEKTISKAKGQPREPQVYTLPPSRDWLTKNQVSLTCLVKGFYPSDIAVEWESNGQPENNYKTTPPVLVSDGSFTLYSKLTVDKSRWQQGNVFSCSVMHEALHNHYTQKSLSLSPGK ?
Result: 1.7

Query: Would you kindly share the measured Heterodimer yields, BB Homodimer (CH3B:CH3B) (Fc)2 for dummy-Fc heavy chain constant region with CH3B of mutant SW-WVT (S-S) (Y349C/E357W/D399V/F405T) (protein) TCPPCPAPELLGGPSVFLFPPKPKDTLMISRTPEVTCVVVDVSHEDPEVKFNWYVDGVEVHNAKTKPREEQYNSTYRVVSVLTVLHQDWLNGKEYKCKVSNKALPAPIEKTISKAKGQPREPQVCTLPPSRDWLTKNQVSLTCLVKGFYPSDIAVEWESNGQPENNYKTTPPVLVSDGSFTLYSKLTVDKSRWQQGNVFSCSVMHEALHNHYTQKSLSLSPGK ?
Result: 0.8
